# subject.of.test: Voltage-gated potassium channel subunit beta-2 (Rattus norvegicus) (UniProt P62483)
# Sequence (P62483 whole entry, looked up): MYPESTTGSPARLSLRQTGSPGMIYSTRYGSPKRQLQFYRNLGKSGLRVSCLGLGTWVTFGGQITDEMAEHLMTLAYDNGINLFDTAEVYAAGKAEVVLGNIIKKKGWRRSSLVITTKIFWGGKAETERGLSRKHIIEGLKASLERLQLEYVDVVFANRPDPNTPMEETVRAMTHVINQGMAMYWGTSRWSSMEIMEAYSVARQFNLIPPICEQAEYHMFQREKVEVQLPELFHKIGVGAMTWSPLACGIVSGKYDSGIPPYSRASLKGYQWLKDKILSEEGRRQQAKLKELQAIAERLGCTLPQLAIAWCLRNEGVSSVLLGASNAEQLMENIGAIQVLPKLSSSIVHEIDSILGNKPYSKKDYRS
# procedure.summary: inhibitors of rat Kvbeta2 reductase activity – biochemical, NADPH fluorescence, primary screen (AID 622);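 further: slope of raw intensity against log time taken from 70 to 1610 s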
# conditions.used: recombinant KvBeta, 4-cyanobenzaldehyde reduction, at 10 µM, hits give high values
// classify(record): look up fluorescence slope in ranges zone 1: < -0.5; zone 2: ≥ -0.5 and < -0.4; zone 3: ≥ -0.4

| compound | label.value |
| --- | --- |
| COc1ccccc1NC(=O)c1ccc(NC(=O)CSc2nnnn2C)cc1 | zone 3 |
| CCCn1c(SCC(=O)Nc2cc(C)on2)nc2c1c(=O)n(C)c(=O)n2C | zone 1 |
| COCCN(CC(=O)NC1CCCCC1)C(=O)CSc1nc2ccccc2o1 | zone 2 |
| CC(=O)Nc1c(Cl)n(C(C)=O)c2ccccc12 | zone 3 |
| CCNc1nc(NC(C)C)nc(N(C#N)CCOc2ccc(Cl)cc2Cl)n1 | zone 2 |
| Cn1c(=O)c2ncn(CC(=O)NCCOc3ccccc3)c2n(C)c1=O | zone 1 |
| CC1(C)CC(=O)C(C=N)=C(O)C1 | zone 3 |
| COc1cc(C(N)=O)ccc1OCc1ccccc1 | zone 2 |
| Cn1c(=O)c2c(ncn2CC(O)CNc2ccc(Cl)cc2)n(C)c1=O (centres undefined) | zone 2 |
| O=C(Cn1nnc(-c2cccc(C(F)(F)F)c2)n1)NC(=O)NCc1ccco1 | zone 2 |
| Nc1nnc(SCCOc2ccccc2)s1 | zone 1 |
| Cc1cc(C(=O)Nc2cc(C)n(Cc3ccc(Cl)cc3)n2)no1 | zone 2 |
| CCCCc1c(O)nc(SCC(=O)c2ccccc2)[nH]c1=O | zone 1 |
| COc1ccc(C(CNC(=O)CN2C(=O)NC3(CC(C)CC(C)(C)C3)C2=O)N2CCOCC2)cc1 (centres undefined) | zone 2 |
| CN(Cc1ccccc1)Cc1nc2c([nH]1)c(=O)[nH]c(=O)n2C | zone 3 |
| CCCCC(c1nnnn1CS(=O)(=O)c1ccc(C)cc1)N1CCN(c2ccccc2)CC1 (centres undefined) | zone 2 |
| CN1CCN(C(=O)CN(Cc2ccc(Cl)cc2)S(C)(=O)=O)CC1 | zone 1 |
| O=C(COc1ccccc1Cl)OCC(=O)N1CCN(S(=O)(=O)c2ccccc2)CC1 | zone 2 |
| CC(C)Oc1cccc(-c2cc(C(=O)N3CCN(S(C)(=O)=O)CC3)c3ccccc3n2)c1 | zone 2 |

From: PubChem BioAssay
